Reference for the values: ChEMBL document CHEMBL1777794

assay: Cmax in rat at 5 mg/kg, po; format: ADME, organism-based; parameters: dose 5 mg/kg, route oral; details: in vivo
Below, each of the compounds is paired with its reported Cmax value.
Express your answer in ng/mL, writing the number without its unit.

O=C(NCC1(O)CCCCCC1)c1cc(-n2ncc(=O)[nH]c2=O)ccc1Cl = 1300
COC[C@H](O)Cn1c(=O)cnn(-c2ccc(Cl)c(C(=O)NCC3(O)CCCCCC3)c2)c1=O = 210

// next entry
The value of Cmax measured for the compound `O=C(NCCc1ccccc1Cl)c1cc(-n2ncc(=O)[nH]c2=O)ccc1Cl` turned out to be 2000

====

test: Half life in monkey; type: ADME, organism-based, Macaca mulatta; conditions: rhesus monkey, in vivo
Overview of recorded half-life for various compounds
Form entry: value (h) — number only.

O=C(NCC1(O)CCCCCC1)c1cc(-n2ncc(=O)[nH]c2=O)ccc1Cl = 3.4

Would you kindly look at the next entry?
half-life recorded for this compound, `COC[C@H](O)Cn1c(=O)cnn(-c2ccc(Cl)c(C(=O)NCC3(O)CCCCCC3)c2)c1=O` , is 0.77

====

biological target: P2X purinoceptor 7 (Homo sapiens); assay: Antagonist activity at P2X7 receptor in human LPS-stimulated monocytes assessed as inhibition of ATP-induced IL1-beta release by ELISA; type: functional, cell-based
Measured pIC50, listed per entry.
FYI, pIC50 means -log10 of a concentration in mol per litre.

Sample records with pIC50:
O=C(NCCc1ccccc1Cl)c1cc(-n2ncc(=O)[nH]c2=O)ccc1Cl = 6.54
O=C(NCCc1ccccc1)c1cc(-n2ncc(=O)[nH]c2=O)ccc1Cl = 6.03
CCC(CC)CNC(=O)c1cc(-n2ncc(=O)[nH]c2=O)ccc1Cl = 5.96

For record `O=C(NCC1CCCCC1)c1cc(-n2ncc(=O)[nH]c2=O)ccc1Cl` the listed pIC50 is 5.89

For `CCn1c(=O)cnn(-c2ccc(Cl)c(C(=O)NCC3(O)CCCCCC3)c2)c1=O` the compound record lists pIC50 as 7.07

====

Target: P2X purinoceptor 7 (Homo sapiens)
Sequence (Q99572 whole entry): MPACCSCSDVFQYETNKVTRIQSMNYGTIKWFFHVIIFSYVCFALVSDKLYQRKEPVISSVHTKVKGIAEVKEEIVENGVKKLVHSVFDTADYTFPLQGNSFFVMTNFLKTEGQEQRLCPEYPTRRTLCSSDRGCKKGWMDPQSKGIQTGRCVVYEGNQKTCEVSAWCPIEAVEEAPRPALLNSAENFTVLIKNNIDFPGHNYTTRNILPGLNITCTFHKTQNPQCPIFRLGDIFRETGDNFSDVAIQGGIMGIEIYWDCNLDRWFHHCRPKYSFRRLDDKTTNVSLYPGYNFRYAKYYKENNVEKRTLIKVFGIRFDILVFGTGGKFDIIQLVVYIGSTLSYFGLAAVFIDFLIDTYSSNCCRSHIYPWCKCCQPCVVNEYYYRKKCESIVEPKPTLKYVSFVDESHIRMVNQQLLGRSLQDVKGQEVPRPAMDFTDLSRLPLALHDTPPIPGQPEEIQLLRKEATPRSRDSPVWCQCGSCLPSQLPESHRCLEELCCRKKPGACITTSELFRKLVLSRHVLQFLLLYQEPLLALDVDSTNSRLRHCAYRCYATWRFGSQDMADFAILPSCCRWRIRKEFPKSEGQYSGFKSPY
Assay: Antagonist activity at P2X7 receptor in human LPS-stimulated monocytes assessed as inhibition of ATP-induced IL1-beta release by ELISA in presence of human blood
Assay type: functional, cell-based
Binary label based on IC50 with cut-off 200 nM: below gives met, not below gives not met.

O=C(NCC1(O)CCCCCC1)c1cc(-n2ncc(=O)[nH]c2=O)ccc1Cl = not met
COC[C@H](O)Cn1c(=O)cnn(-c2ccc(Cl)c(C(=O)NCC3(O)CCCCCC3)c2)c1=O = met
COCCn1c(=O)cnn(-c2ccc(Cl)c(C(=O)NCC3(O)CCCCCC3)c2)c1=O = met

Query block: IC50 under 200 nM? Item: `O=C(NCCc1ccccc1Cl)c1cc(-n2ncc(=O)[nH]c2=O)ccc1Cl`
Result block: not met

Query block: Here's an entry: `CCn1c(=O)cnn(-c2ccc(Cl)c(C(=O)NCC3(O)CCCCCC3)c2)c1=O` . Is its IC50 below 200 nM?
Result block: met
